// data source = patent EP2092824A1

protocol-notes: logP determination by HPLC on reversed-phase column (EEC-Directive 79/831 Annex V.A8)
Format: physicochemical
assay-context: c18 hplc, C 18 reversed phase, 43°C, LC-MS at pH 2,7 (0,1 % aqueous formic acid / acetonitrile)
Examples of molecules with documented chromatographic logP follow.

[
  {
    "molecule": "CC(C)Nc1nc([S+](C)[O-])nc(Cl)c1-c1ccccc1Cl (stereo not shown)",
    "chromatographic logP": 2.55
  },
  {
    "molecule": "CC(C)Nc1nc(S(C)(=O)=O)nc(Cl)c1-c1ccccc1Cl",
    "chromatographic logP": 2.96
  },
  {
    "molecule": "CSc1nc(Cl)c(-c2ccccc2Cl)c(Cl)n1",
    "chromatographic logP": 4.52
  },
  {
    "molecule": "CSc1nc(Cl)c(-c2ccccc2Cl)c(NC(C)C)n1",
    "chromatographic logP": 4.52
  }
]
